Test system: KB (originally isolated from epidermoid carcinoma of the nasopharynx)
Test: Antiproliferative SRB assay, KB
Assay type: cell-based
Details: Homo sapiens; SRB assay, 72 h; read-out: IC50 KB
Provide the recorded pIC50 for the entries that follow.
On this scale, pIC50 is minus log10 of a concentration expressed in M (mol/L).

pIC50 in this record for COC(=O)C1=C2Nc3ccccc3C23CCN2CC=CC(C(C)OC(C)=O)(C1)C23 [Compound 11, 19-(R)-acetoxytabersonine] : 4.58

pIC50 in this record for "CC[C@@]12CC(C(=O)OC)=C3Nc4ccccc4[C@@]34CCN([C@H](CC(C)=O)[C@@H]3O[C@@H]31)[C@@H]24" : 5.24

pIC50 in this record for CC[C@@]12CC(C(=O)OC)=C3Nc4cc(O)ccc4[C@@]34CCN(C[C@@H]3O[C@@H]31)[C@@H]24 [Compound 7, 11-hydroxylochnericine] : 5.27

pIC50 in this record for "CC[C@@]12CC(C(=O)OC)=C3Nc4cc(OC)ccc4[C@@]34CCN(C[C@H]3O[C@H]31)[C@@H]24" : 6.05
